# assayed.system: human CMV DNA polymerase UL54 (Human cytomegalovirus (strain AD169) (HHV-5) (Human herpesvirus 5), UniProt P08546)
# protocol: CMV polymerase biochemical assay (molecular beacon-based)
Give measured pIC50 for each item. Keep answers brief.
Numbers only, as −log10 of the molar value.

COC1(CN2CCn3c(ccc(C(=O)NCc4ccc(Cl)cc4)c3=O)C2=O)CC1: 7.14
C[C@@H](NC(=O)c1ccc2n(c1=O)CCN(CC1(S(C)(=O)=O)CC1)C2=O)c1ccc(Cl)cc1: 6.34
O=C(NCc1ccc(Cl)nc1)c1ccc2n(c1=O)CCN(CC1(S(=O)(=O)C3(CO)CC3)CC1)C2=O: 8.19

With those in mind, consider the next molecule.
Noted for `O=C(NCc1ccc(Cl)cc1)c1ccc2n(c1=O)CCN(CCO)C2=O` : its pIC50 reads 5.67
